Molecular target: Receptor-interacting serine/threonine-protein kinase 2 (Homo sapiens)
Assay: Inhibition of N-terminal polyHis-tagged human RIPK2 (8 to 310 residues) expressed in Sf9 cells using MBP as substrate preincubated for 15 mins followed by ATP addition measured after 90 mins by ADP-Glo assay
pIC50: −log10 of the molar value.
measured-quantity: pIC50

smiles-data | measured-quantity | measured-result
c1nc(Nc2ccc3scnc3c2)c2cc(-c3cc[nH]n3)ccc2n1 | pIC50 | 8.22
Cc1ccsc1-c1ccc2ncnc(Nc3ccc4scnc4c3)c2c1 | pIC50 | 8.22
Cn1cncc1-c1cc2c(Nc3ccc4scnc4c3)ncnc2cc1Cl | pIC50 | 8.15
Cn1ccnc1-c1ccc2ncnc(Nc3ccc4scnc4c3)c2c1 | pIC50 | 7.92
Cn1cnc(-c2cc3c(Nc4ccc5scnc5c4)ncnc3cc2Cl)c1 | pIC50 | 8.00
Clc1cc2ncnc(Nc3ccc4scnc4c3)c2cc1-c1cc[nH]n1 | pIC50 | 8.00

###

Target: Receptor-interacting serine/threonine-protein kinase 2 (Homo sapiens, UniProt O43353)
Sequence (O43353 whole entry, the tested form may be a part): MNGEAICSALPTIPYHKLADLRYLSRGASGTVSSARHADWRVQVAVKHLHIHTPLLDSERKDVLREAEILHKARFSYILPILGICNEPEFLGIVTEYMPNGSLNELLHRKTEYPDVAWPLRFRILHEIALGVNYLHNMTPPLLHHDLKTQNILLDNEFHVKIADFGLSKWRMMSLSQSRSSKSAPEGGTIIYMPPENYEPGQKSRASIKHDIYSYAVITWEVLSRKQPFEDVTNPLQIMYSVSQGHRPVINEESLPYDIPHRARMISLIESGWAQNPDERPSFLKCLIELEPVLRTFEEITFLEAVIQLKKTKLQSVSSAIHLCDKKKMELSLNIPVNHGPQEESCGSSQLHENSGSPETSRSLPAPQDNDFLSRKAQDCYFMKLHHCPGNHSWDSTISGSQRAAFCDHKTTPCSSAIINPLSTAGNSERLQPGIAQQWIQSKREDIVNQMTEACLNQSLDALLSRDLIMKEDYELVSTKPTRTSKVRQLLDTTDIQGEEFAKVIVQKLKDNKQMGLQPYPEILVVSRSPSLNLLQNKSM
Assay: Inhibition of RIPK2-mediated NF-kappaB signalling in MDP-treated human THP-1 cells preincubated for 30 mins followed by MDP addition measured after 24 hrs by luminescence based assay
Format: cell-based
pIC50: −log10 of the molar value.
Think of 7 as a floor: if pIC50 stands on it or above, it is MET; beneath it, NOT MET.

smiles-data | assigned-label
Cc1ccsc1-c1cc2c(Nc3ccc4scnc4c3)ncnc2cc1-c1cccc(CO)c1 | NOT MET
Cn1ccnc1-c1cc2c(Nc3ccc4scnc4c3)ncnc2cc1Cl | MET
CC(C)(C)S(=O)(=O)c1cc2c(Nc3ccc4scnc4c3)ncnc2cc1OCCOP(=O)(O)O | MET
Cn1cccc1-c1ccc2ncnc(Nc3ccc4scnc4c3)c2c1 | NOT MET
OCc1cccc(-c2cc3ncnc(Nc4ccc5scnc5c4)c3cc2-c2cccs2)c1 | NOT MET
Cn1nccc1-c1cc2c(Nc3ccc4scnc4c3)ncnc2cc1Cl | NOT MET

###

Experiment: Metabolic stability in mouse plasma assessed as compound remaining at 5 uM incubated for 120 mins by ECHO-MS analysis
Assay type: ADME, cell-free
Conditions: read-out: Stability

smiles-data | remaining at 2 h, 5 µM (%)
C1=C(c2cc3ncnc(Nc4ccc5scnc5c4)c3cc2-c2cccs2)COC1 | 111
Cn1cncc1-c1ccc2ncnc(Nc3ccc4scnc4c3)c2c1 | 79
Cc1ccsc1-c1cc2c(Nc3ccc4scnc4c3)ncnc2cc1-c1cccc(CO)c1 | 108

###

Target: Receptor-interacting serine/threonine-protein kinase 2 (Homo sapiens)
Assay: Inhibition of RIPK2-mediated NF-kappaB signalling in MDP-treated human THP-1 cells preincubated for 30 mins followed by MDP addition measured after 24 hrs by luminescence based assay
Format: cell-based
pIC50: −log10 of the molar value.
pIC50 values for the molecules below.

smiles-data | pIC50
Cc1ncc(-c2ccc3ncnc(Nc4ccc5scnc5c4)c3c2)s1 | 6.97
c1nc(Nc2ccc3scnc3c2)c2cc(-c3cc[nH]n3)ccc2n1 | 7.17
Cn1cncc1-c1ccc2ncnc(Nc3ccc4scnc4c3)c2c1 | 6.94
Cn1cnc(-c2ccc3ncnc(Nc4ccc5scnc5c4)c3c2)c1 | 7.02
Cc1ncc(-c2cc3c(Nc4ccc5scnc5c4)ncnc3cc2Cl)s1 | 6.99
